Target: delF508-CFTR-HRP (Homo sapiens, UniProt P13569, DEL508-508)
Sequence (P13569 with tags, fused parts or gaps DEL508-508): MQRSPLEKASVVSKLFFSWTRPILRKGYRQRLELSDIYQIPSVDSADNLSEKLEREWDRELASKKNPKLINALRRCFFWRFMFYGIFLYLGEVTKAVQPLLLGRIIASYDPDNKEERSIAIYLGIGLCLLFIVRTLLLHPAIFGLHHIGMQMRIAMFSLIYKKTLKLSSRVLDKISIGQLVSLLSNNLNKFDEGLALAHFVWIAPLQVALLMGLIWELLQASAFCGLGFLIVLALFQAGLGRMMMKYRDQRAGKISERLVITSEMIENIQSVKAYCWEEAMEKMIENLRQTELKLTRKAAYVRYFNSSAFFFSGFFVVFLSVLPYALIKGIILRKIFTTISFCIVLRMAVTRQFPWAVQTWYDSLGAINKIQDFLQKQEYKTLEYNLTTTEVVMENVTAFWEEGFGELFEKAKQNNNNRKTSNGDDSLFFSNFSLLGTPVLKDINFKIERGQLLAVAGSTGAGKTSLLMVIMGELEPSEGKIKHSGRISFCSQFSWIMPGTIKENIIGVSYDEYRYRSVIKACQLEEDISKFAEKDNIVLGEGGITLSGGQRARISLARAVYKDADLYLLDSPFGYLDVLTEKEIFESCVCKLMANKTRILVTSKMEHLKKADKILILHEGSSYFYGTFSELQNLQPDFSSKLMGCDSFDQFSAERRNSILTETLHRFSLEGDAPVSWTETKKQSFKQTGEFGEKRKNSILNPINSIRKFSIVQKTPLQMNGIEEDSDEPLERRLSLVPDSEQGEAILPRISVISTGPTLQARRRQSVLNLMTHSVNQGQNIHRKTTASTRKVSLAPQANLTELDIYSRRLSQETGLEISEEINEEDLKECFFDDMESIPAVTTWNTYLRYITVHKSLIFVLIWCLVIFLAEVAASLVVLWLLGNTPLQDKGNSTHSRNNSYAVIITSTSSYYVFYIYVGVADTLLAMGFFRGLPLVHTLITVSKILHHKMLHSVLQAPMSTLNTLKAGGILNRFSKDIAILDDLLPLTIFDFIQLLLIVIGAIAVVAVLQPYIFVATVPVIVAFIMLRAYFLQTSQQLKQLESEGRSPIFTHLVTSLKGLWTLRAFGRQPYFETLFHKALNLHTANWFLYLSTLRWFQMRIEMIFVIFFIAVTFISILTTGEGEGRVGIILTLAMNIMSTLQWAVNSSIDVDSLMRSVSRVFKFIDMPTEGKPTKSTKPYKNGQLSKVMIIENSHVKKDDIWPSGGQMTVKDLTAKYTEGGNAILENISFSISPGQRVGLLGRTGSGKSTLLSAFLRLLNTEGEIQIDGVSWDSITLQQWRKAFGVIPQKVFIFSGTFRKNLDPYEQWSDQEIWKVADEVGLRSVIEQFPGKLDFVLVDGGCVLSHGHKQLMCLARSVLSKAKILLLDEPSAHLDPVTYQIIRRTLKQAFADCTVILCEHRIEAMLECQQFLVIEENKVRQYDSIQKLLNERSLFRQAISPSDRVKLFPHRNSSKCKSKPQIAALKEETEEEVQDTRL
Test: Measurement of delF508-CFTR-HRP surface expression in CFBE41o- cells (HRP luminescence)
Conditions: mean of at least two replicates
readout_label: EC50 (nM)
Report the figure in nM without appending any unit label.

Below, 3 compounds whose answers are already recorded.
CC1(O)CCCN(c2cccc(S(=O)(=O)NC(=O)C3(Oc4cc(Cl)ccc4C4CC5(CCC5)C4)CC3)n2)C1 (single isomer, unassigned) [Example 7-8-1] :: 1000
Cc1ccc(C2CCCOC2)c(OC2(C(=O)NS(=O)(=O)c3cccc(N4CCC[C@@H](CO)C4)n3)CC2)c1 (some centres unmarked) [Example 4-20] :: 3230
O=C(NS(=O)(=O)c1cccc(N2CC[C@@H](O)C2)n1)C1(Oc2cc(Cl)ccc2N2CC3(CCCCC3)C2)CC1 [Example 9-6] :: 910

The compound listed as CC1(O)CCCN(c2cccc(S(=O)(=O)NC(=O)C3(Oc4cc(Cl)ccc4C4CC5(CCC5)C4)CC3)n2)C1 (single isomer, unassigned) [Example 7-8-2] shows EC50 equal to 1020

The compound listed as Cc1ccc(C2CCCCC2)c(OC2(C(=O)NS(=O)(=O)c3cccc(N4CCC(C(=O)O)CC4)n3)CC2)c1 [Example 2-6] shows EC50 equal to 4560

The compound listed as Cc1ccc(C2CC(F)(F)C2)c(OC2(C(=O)NS(=O)(=O)c3cccc(N4CC(C)(O)C4)n3)CC2)c1 [Example 4-3] shows EC50 equal to 4520

The compound listed as CC1CC(C)CN(c2ccc(Cl)cc2OC2(C(=O)NS(=O)(=O)c3cccc(N4CC[C@H](O)C4)n3)CC2)C1 (some centres unmarked) [Example 9-17] shows EC50 equal to 1290

The compound listed as Cc1ccc([C@H]2CC[C@H](F)CC2)c(OC2(C(=O)NS(=O)(=O)c3cccc(N4CC(C)(O)C4)n3)CC2)c1 (single isomer, unassigned) [Example 4-1] shows EC50 equal to 4030

###

Biological target: delF508-CFTR-HRP (Homo sapiens, UniProt P13569, DEL508-508)
Construct: expressed in transfected cells
Experiment: Measurement of delF508-CFTR-HRP surface expression in CFBE41o- cells (HRP luminescence)
Format: cell-based
Settings: CFBE41o-, read-out: DelF508-CFTR-HRP Amax %
# note: exactly 400% is not below, so it is 0; use 1 for Emax strictly under it

Example cases with answers are listed next.
Cc1ccc(OCC(C)C)c(OC2(C(=O)NS(=O)(=O)c3cccc(N4CC[C@H](O)C4)n3)CC2)c1 [Example 6-15] :: 1
O=C(NS(=O)(=O)c1cccc(N2CC[C@H](O)C2)n1)C1(Oc2cc(Cl)ccc2N2CC3CCCC3C2)CC1 (stereo partly shown) [Example 9-24] :: 0
Cc1ccc(OC2CCC(C(C)(C)C)CC2)c(OC2(C(=O)NS(=O)(=O)c3cccc(N4CCC(O)(C(F)(F)F)CC4)n3)CC2)c1 (stereo not shown) [Example 6-8] :: 0
Cc1ccc(C2(C(F)(F)F)CC2)c(OC2(C(=O)NS(=O)(=O)c3cccc(N4CC(C)(O)C4)n3)CC2)c1 [Example 4-17] :: 1
C[C@@]1(O)CCN(c2cccc(S(=O)(=O)NC(=O)C3(Oc4cc(Cl)ccc4C4CC5(CCC5)C4)CC3)n2)C1 (single isomer, unassigned) [Example 7-2-2] :: 1
Cc1ccc(OCc2ccccc2)c(OC2(C(=O)NS(=O)(=O)c3cccc(N4CCO[C@@H](C)C4)n3)CC2)c1 [Example 6-1] :: 1

Ask | Does the reported Emax of the following compound sit strictly below 400%? Cc1ccc(-c2cccc(C(F)(F)F)c2)c(OC2(C(=O)NS(=O)(=O)c3cccc(N4CC[C@@H](O)C4)n3)CC2)c1 [Example 5-11]
Reply | 1

Ask | Does the reported Emax of the following compound sit strictly below 400%? Cc1ccc(-c2cccc(C(F)(F)F)c2)c(OC2(C(=O)NS(=O)(=O)c3cccc(N4CCC(N)(C(F)(F)F)CC4)n3)CC2)c1 [Example 5-16]
Reply | 1

Ask | Does the reported Emax of the following compound sit strictly below 400%? Cc1ccc(C2CCCCC2)c(OC2(C(=O)NS(=O)(=O)c3cccc(N4CCC(CF)(NC(=O)OC(C)(C)C)CC4)n3)CC2)c1 [Example 2-42]
Reply | 1

Ask | Does the reported Emax of the following compound sit strictly below 400%? Cc1ccc(C2CCCCC2)c(OC2(C(=O)NS(=O)(=O)c3cccc(N4CCOC[C@@H]4C)n3)CC2)c1 [Example 2-2]
Reply | 0

Ask | Does the reported Emax of the following compound sit strictly below 400%? Cc1ccc(OC2CCCC2)c(OC2(C(=O)NS(=O)(=O)c3cccc(N4CCC(C)(C#N)CC4)n3)CC2)c1 [Example 6-2]
Reply | 1
